Value source: PubChem BioAssay (NCI)

Tested on: HL-60(TB) leukemia
Experiment: NCI-60 one-dose screen, 48 h (100 = growth as untreated, 0 = no growth, -100 = all killed)
Details: 10 µM unless noted
This is part of a sample that, as a whole, favours compounds with a hit. Of some 83,000 tested, about 20% had one in any assay.
Assignment: determine reported growth for the given compounds.
Numbers only, in %.

Cc1nc2sc(C(=O)Nc3ccccc3)c(N)c2cc1C(=O)/C=C/c1ccccc1; 3.44
Cc1ccc(Nc2nccc(N(C)c3ccc4c(C)n(C)nc4c3)n2)cc1S(N)(=O)=O; 5.08
C=CCOc1cccc(/C=C/C(=O)c2sc(Nc3cccnc3)nc2C)c1; 43.3
COc1ccc(Cc2nnc(Nc3nc4ccccc4s3)s2)cc1; -32.7
O=C1NC(=O)C(c2coc3cc(Br)ccc23)=C1c1c[nH]c2ccccc12; 13.1
CCC(C)(C)c1ccc(OCCCCCCN2CCNCC2)cc1; -17.4
COc1ccc(C/C(=C(\C)c2ccc(OCCN3CCCC3)cc2)c2ccc(OCCN3CCCC3)cc2)cc1; -58.1
CCOC(=O)C1CSC(C)(C(=O)OCC)N1 (centres undefined); 83.8
Cc1cc(C)c([O-])c(CN(C)CCN(C)Cc2cc(C)cc(C)c2[O-])c1.O=C([O-])c1cccc(C(=O)[O-])n1.[Ti+4]; -7.45
[O-]/[N+](=C\C=C\c1ccccc1)c1ccccc1; 82.3

List growth for every entry below, keeping the order given.
1. FC(F)(F)c1ccc(-c2ncc(-c3ccc(C(F)(F)F)cc3)c(NCc3cc(C(F)(F)F)cc(C(F)(F)F)c3)n2)cc1
2. CCOc1ccccc1CN1CCc2nc3cc(C(C)(C)C)[nH]n3c(=O)c2C1
3. CCCCCCCCSc1ncnc2c1ncn2CO
4. COc1ccc(/C(=N/O)c2cc(OC)c(OC)c(OC)c2)c(OC)c1N
5. CCOP1(=O)CC(C)=C(Cl)C(P(=O)(O)O)C1 (centres undefined)
6. C(=C\c1c[nH]c2ccccc12)/c1ccc2ccccc2n1
7. O=C1Nc2ccccc2/C1=C\c1cccc(/C=C2/C(=O)Nc3ccccc32)n1

1. 71.7
2. 99.4
3. 94.5
4. -24.6
5. 11.5
6. 2.85
7. -48.6

List growth for every entry below, keeping the order given.
1. c1ccc(C2CC(c3cccc(Nc4ccncc4)c3)=NN2c2ccccc2)cc1 (centres undefined)
2. COc1ccc2c(c1)CCc1[nH]nc(-c3cc(OC)c(OC)c(OC)c3)c1-2
3. CC(C)(C)[Si](C)(C)OC1[C@@H](CNC(=O)NC(=O)NC(N)=O)O[C@@H](n2cnc3c(NC(=O)Nc4ccccc4)ncnc32)[C@H]1O[Si](C)(C)C(C)(C)C (some centres undefined)
4. CN1NC(c2ccccc2)NN(C)C1=O
5. CN(C)CCC(O)(Cc1ccccc1)c1ccccc1 (centres undefined)
6. OB(O)c1ccsc1-c1nc2ccc3[nH]ncc3c2c2c1CCCC2

1. -8.94
2. -20.4
3. 86.3
4. 105
5. 85
6. 52.2

List growth for every entry below, keeping the order given.
1. COCCOCCOCc1n(Cc2ccc3ccccc3c2)c2ccccc2[n+]1Cc1ccc2ccccc2c1
2. NC(=O)C1(N2CCCCC2)CCN(CCCC(=O)c2ccc(F)cc2)CC1
3. CN1C(=O)CCC(N2C(=O)c3cccc(NCCOCCOCCNC(=O)c4cc5c(o4)C(=O)c4ccccc4C5=O)c3C2=O)C1=O (centres undefined)
4. Cn1cc(-c2csc(-c3c[nH]c4ccc(F)cc34)n2)c2ccnc(Cl)c21
5. O=C(CCCN1CCC2(CC1)C(=O)NCN2c1ccc(F)cc1)c1ccc(F)cc1
6. CC(C)N(C(=S)SSC(=S)N(C(C)C)C(C)C)C(C)C
7. O=C(O)CCCN1C(=O)NC2(C1=O)c1ccccc1-c1ccccc12

[-53.5, 9.84, 0.337, 72, 100, 122, 101]

List growth for every entry below, keeping the order given.
1. O=c1[nH]c(=O)c2[nH]c(=O)[nH]c2[nH]1
2. COc1cc2oc(-c3cccc(C(=O)Nc4ccc(Cl)cc4)c3)cc(=O)c2c(O)c1OC

1. 100
2. 85.6

List growth for every entry below, keeping the order given.
1. O=C(CCc1nnc(Cn2ccnc2)o1)c1nc2ccccc2[nH]1
2. CNC(=O)c1cccc(Cn2nc(C)c(NC(=O)c3ccc(COc4ccc(C(F)(F)F)cc4C)cc3)c2C)n1
3. O=c1c(Cc2ccc(F)cc2)cc(-c2ccccc2)nn1C/C(=N/O)c1ccccc1

106
36.7
24.8

List growth for every entry below, keeping the order given.
1. CC(C)=CC[C@@H]1CC2(CC=C(C)C)C(=O)C(OC3(C(=O)c4ccccc4)C(=O)C4(CC=C(C)C)C[C@@H](CC=C(C)C)C(C)(C)C(CC=C(C)C)(C4=O)C3=O)(C(=O)c3ccccc3)C(=O)C(CC=C(C)C)(C2=O)C1(C)C (some centres undefined)
2. COc1ccc(C(=O)c2nccc3cc(OC)c(OC)cc23)cc1OC
3. CC(=O)Oc1ccccc1C(=O)N=C1[Se]CCCN1C(=O)c1ccccc1OC(C)=O
4. Cc1c(C)c2c(c(C)c1NC(=O)CCCCCCC(=O)O)CCC(C)(CCCC(C)CCCC(C)CCCC(C)C)O2 (centres undefined)

1. -47.7
2. 102
3. 12.7
4. 75.1
